# TARGET_SYSTEM: α3β4 nAChR (Homo sapiens, UniProt P30926+P32297)
# Sequence (P32297 32-505): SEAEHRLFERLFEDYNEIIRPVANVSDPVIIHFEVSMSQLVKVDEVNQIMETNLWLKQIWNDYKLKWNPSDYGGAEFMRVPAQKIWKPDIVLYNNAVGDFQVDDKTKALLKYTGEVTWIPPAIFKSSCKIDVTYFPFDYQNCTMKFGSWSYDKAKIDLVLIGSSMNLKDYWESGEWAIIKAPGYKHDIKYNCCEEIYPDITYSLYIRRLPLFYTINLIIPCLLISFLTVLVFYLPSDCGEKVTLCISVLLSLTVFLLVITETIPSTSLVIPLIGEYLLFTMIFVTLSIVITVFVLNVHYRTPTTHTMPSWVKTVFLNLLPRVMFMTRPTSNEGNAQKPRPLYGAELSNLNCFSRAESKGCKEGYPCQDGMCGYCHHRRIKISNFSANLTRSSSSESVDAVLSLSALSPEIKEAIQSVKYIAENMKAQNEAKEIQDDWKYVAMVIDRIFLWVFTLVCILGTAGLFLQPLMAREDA
# Sequence (P30926 22-498): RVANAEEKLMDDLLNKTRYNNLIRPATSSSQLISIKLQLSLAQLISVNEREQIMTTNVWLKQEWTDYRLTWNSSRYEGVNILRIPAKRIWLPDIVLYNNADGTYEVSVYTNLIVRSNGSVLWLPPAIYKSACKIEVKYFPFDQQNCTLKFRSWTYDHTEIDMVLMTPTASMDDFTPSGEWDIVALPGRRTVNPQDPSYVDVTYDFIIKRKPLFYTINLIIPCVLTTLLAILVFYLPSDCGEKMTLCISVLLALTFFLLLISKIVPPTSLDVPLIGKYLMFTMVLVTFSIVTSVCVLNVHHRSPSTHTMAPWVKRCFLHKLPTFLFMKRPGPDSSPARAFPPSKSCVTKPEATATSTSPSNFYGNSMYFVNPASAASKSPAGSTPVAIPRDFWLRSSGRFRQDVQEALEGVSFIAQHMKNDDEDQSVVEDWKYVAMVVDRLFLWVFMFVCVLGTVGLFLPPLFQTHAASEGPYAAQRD
# RUN_PARAMETERS: read-out: α3β4 EC50
PARAMETER: pEC50
Kindly note that pEC50 refers to -log10 of the concentration in mol/L and answer with the value alone.

[[record]]
compound = "CC[N+](C)(C)C [ETMA, reference compound]"
target_system = "α3β4 nAChR (Homo sapiens, UniProt P30926+P32297)"
observed = 3.18


Q. Given C[N+](C)(C)C [TMA, tetramethyl-ammonium, reference compound] , state its recorded pEC50.
A. 3.46

====

This document collects selectivity classification values reported for α7 nAChR (Homo sapiens, UniProt P36544).
PARAMETER: selectivity classification

[[record]]
compound = "C[N+](C)(C)C [TMA, tetramethyl-ammonium, reference compound]"
parameter = "selectivity classification"
observed = "non-α7-selective"

[[record]]
compound = "C1CN2CCC1CC2 [QN, quinuclidine]"
parameter = "selectivity classification"
observed = "non-α7-selective"


====

# TARGET_SYSTEM: α7 nAChR (Homo sapiens, UniProt P36544)
# Sequence (P36544 23-502): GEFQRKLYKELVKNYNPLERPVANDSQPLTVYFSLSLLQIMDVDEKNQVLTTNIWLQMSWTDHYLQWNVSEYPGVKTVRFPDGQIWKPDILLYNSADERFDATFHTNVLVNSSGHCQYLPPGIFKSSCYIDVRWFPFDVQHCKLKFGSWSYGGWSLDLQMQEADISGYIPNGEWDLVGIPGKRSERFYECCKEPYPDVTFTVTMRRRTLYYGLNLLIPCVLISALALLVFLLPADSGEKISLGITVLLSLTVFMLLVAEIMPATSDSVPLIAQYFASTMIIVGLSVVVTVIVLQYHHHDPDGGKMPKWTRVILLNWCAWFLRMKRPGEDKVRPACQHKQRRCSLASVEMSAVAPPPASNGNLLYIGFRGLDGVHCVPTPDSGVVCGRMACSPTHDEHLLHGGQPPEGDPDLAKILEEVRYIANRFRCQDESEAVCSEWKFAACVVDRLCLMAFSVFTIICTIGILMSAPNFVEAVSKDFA
molecules and their reported pEC50
Give only the number. pEC50 is defined as minus log10 of concentration in molar units.

Reference set (2 entries):
[[record]]
molecule = "C[N+](C)(C)CCO [Choline, choline, reference compound]"
target_system = "α7 nAChR (Homo sapiens, UniProt P36544)"
observed = 3.61

[[record]]
molecule = "COc1ccc(/C=C2\\CN3CCC2CC3)cc1.Cl"
target_system = "α7 nAChR (Homo sapiens, UniProt P36544)"
observed = 5.96


Q. Record lookup: for α7 nAChR (Homo sapiens, UniProt P36544), what pEC50 belongs to C(=C1/CN2CCC1CC2)/c1ccccc1.Cl ?
A. 5.14

Q. # get_value(readout= pEC50, system= α7 nAChR (Homo sapiens, UniProt P36544)) for C1CN2CCC1CC2
A. 5.14

====

# TARGET_SYSTEM: α3β4 nAChR (Homo sapiens, UniProt P30926+P32297)
PARAMETER: agonist character at α3β4

[[record]]
compound = "C[N+](C)(C)C [TMA, tetramethyl-ammonium, reference compound]"
observed = "partial agonists"

[[record]]
compound = "CC[N+](C)(C)C [ETMA, reference compound]"
observed = "partial agonists"


====

# TARGET_SYSTEM: α3β4 nAChR (Homo sapiens, UniProt P30926+P32297)
PARAMETER: EC50 (µM)
Please reply with the bare figure in µM and do not write the unit itself.

Q. Give its EC50 value. Item: C1CN2CCC1CC2
A. 180

====

# TARGET_SYSTEM: α4β2 nAChR (Homo sapiens, UniProt P17787+P43681)
# Sequence (P43681 29-627 limits assumed): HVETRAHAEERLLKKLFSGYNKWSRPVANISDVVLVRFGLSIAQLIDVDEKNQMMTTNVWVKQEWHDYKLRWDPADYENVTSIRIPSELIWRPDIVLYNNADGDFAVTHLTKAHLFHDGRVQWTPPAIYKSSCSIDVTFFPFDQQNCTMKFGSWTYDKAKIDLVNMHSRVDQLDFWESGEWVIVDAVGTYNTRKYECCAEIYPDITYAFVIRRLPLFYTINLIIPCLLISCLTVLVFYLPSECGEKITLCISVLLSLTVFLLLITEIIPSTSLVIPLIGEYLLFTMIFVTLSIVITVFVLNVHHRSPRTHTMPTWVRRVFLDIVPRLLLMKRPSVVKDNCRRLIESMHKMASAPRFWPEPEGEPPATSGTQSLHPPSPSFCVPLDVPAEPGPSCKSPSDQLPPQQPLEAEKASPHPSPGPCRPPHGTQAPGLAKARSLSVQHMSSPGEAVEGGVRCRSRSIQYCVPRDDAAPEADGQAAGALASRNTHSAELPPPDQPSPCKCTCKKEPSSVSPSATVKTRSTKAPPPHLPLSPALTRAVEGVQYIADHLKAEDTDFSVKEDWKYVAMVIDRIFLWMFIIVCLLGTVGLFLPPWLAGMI
# Sequence (P17787 26-502): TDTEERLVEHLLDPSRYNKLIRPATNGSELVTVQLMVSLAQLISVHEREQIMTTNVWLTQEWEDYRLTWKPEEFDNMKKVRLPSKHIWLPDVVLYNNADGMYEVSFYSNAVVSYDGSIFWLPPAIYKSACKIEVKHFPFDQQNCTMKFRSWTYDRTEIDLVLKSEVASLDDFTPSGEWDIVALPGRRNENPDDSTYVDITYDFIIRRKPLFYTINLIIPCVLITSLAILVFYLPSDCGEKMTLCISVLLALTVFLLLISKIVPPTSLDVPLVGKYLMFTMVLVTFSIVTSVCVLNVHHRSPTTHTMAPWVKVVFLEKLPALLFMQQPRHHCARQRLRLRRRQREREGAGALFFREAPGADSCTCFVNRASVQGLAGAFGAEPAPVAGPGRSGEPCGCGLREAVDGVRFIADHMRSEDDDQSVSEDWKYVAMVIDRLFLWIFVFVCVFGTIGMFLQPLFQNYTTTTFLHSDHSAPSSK
# PROCEDURE_TEXT: cell-based
# Type: cell-based
PARAMETER: α4β2 Activity

Recorded results for 6 compounds are shown here.
[[record]]
compound = "CC[N+](C)(C)C [ETMA, reference compound]"
observed = "≤2%"

[[record]]
compound = "COc1ccc(/C=C2\\CN3CCC2CC3)cc1.Cl"
observed = "N"

[[record]]
compound = "C(=C1/CN2CCC1CC2)/c1ccccc1.Cl"
observed = "≈1%"

[[record]]
compound = "C[N+](C)(C)C [TMA, tetramethyl-ammonium, reference compound]"
observed = "19 ± 6%"

[[record]]
compound = "CC[N+](C)(C)CC"
observed = "N"

[[record]]
compound = "C[N+]12CCC(CC1)CC2.[I-]"
observed = "N"


Q. Endpoint output: α4β2 Activity of C(=C1\CN2CCC1CC2)/c1ccccc1.Cl . Value?
A. N

Q. Dear colleague, I am looking for the recorded α4β2 Activity of the following compound: C1CN2CCC1CC2
A. ≈2%

Q. Item COc1ccc(/C=C2/CN3CCC2CC3)cc1.Cl has what recorded α4β2 Activity?
A. N

====

# TARGET_SYSTEM: 5HT3 receptors (Homo sapiens)
# Sequence (P46098 24-478): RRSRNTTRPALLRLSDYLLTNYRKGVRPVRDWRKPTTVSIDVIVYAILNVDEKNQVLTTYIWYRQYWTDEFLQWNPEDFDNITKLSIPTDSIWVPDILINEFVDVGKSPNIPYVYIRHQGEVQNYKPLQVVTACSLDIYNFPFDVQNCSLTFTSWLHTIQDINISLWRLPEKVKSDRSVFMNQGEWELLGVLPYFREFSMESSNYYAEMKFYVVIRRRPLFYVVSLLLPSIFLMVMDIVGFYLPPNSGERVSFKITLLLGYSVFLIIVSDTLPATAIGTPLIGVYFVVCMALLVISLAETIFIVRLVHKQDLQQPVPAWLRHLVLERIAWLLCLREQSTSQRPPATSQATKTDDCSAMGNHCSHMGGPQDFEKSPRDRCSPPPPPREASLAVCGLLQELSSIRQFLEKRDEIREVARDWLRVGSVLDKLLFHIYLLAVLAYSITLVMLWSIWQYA
# Assay type: cell-based
Catalogue of 5HT3 Inhibition readings, one per entry.
Please give a number only; it is taken to be in %.

The following compounds have reported results that may help.
[[record]]
sample_smiles = "C(=C1/CN2CCC1CC2)/c1ccccc1.Cl"
parameter = "5HT3 Inhibition"
observed = 95

[[record]]
sample_smiles = "COc1ccc(/C=C2\\CN3CCC2CC3)cc1.Cl"
parameter = "5HT3 Inhibition"
observed = 80

[[record]]
sample_smiles = "COc1ccc(/C=C2/CN3CCC2CC3)cc1.Cl"
parameter = "5HT3 Inhibition"
observed = 94


Next compound, please.
Q. Requested field: 5HT3 Inhibition. Item: C(=C1\CN2CCC1CC2)/c1ccccc1.Cl
A. 94

====

Listing: α4β2 Inhibition of selected molecules
# TARGET_SYSTEM: α4β2 nAChR (Homo sapiens, UniProt P17787+P43681)
# Format: cell-based
Answer with a number only, understood to be in %.

[[record]]
molecule = "C(=C1\\CN2CCC1CC2)/c1ccccc1.Cl [BQNE]"
observed = 77


Q. Requested read-out: α4β2 Inhibition. Entry: C[N+]12CCC(CC1)CC2.[I-] [MQN]
A. 72

Q. For the molecule COc1ccc(/C=C2\CN3CCC2CC3)cc1.Cl [MeOBQNZ] , what α4β2 Inhibition is on record?
A. 56

Q. What value of α4β2 Inhibition has been reported for the following molecule? COc1ccc(/C=C2/CN3CCC2CC3)cc1.Cl [MeOBQNE]
A. 81

====

# TARGET_SYSTEM: muscle type (α1β1εδ) nAChR (Homo sapiens, UniProt P02708+Q04844+Q07001)
# Sequence (P02708 21-457): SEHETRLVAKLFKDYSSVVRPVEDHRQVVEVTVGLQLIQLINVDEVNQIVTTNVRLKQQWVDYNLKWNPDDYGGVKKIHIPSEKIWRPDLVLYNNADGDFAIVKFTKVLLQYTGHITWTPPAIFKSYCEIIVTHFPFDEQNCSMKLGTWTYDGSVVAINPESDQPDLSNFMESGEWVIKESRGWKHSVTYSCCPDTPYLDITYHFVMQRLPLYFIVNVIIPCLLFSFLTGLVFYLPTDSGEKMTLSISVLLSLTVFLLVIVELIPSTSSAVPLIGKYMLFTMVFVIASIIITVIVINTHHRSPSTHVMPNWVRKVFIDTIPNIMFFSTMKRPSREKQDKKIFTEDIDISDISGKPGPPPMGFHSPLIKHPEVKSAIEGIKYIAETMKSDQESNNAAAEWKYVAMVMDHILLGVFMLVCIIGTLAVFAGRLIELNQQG
# Sequence (P11230 24-501 partner): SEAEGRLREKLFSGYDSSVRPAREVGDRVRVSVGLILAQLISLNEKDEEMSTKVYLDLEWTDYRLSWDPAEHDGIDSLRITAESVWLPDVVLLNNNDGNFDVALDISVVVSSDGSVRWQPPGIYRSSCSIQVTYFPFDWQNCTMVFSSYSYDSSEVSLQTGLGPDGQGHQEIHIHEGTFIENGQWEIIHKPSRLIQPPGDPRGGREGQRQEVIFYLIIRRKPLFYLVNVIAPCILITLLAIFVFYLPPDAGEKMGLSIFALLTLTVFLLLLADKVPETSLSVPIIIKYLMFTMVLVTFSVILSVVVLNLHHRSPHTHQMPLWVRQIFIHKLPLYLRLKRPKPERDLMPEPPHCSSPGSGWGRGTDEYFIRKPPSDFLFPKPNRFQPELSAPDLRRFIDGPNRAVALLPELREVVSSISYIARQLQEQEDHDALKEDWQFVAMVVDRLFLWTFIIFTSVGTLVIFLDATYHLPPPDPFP
# Sequence (Q04844 21-493): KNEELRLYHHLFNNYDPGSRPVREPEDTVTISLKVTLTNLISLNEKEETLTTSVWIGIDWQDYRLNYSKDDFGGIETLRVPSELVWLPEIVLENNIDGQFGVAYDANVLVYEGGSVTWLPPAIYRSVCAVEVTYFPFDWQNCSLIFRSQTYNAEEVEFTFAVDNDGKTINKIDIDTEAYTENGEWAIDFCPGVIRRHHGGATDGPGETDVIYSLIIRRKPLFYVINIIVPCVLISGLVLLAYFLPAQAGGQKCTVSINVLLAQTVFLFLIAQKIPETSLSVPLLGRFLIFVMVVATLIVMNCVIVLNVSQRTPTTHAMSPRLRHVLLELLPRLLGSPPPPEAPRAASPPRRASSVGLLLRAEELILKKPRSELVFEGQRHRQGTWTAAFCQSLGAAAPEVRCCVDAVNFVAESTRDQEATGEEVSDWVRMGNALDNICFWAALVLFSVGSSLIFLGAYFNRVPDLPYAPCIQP
# Sequence (Q07001 22-517): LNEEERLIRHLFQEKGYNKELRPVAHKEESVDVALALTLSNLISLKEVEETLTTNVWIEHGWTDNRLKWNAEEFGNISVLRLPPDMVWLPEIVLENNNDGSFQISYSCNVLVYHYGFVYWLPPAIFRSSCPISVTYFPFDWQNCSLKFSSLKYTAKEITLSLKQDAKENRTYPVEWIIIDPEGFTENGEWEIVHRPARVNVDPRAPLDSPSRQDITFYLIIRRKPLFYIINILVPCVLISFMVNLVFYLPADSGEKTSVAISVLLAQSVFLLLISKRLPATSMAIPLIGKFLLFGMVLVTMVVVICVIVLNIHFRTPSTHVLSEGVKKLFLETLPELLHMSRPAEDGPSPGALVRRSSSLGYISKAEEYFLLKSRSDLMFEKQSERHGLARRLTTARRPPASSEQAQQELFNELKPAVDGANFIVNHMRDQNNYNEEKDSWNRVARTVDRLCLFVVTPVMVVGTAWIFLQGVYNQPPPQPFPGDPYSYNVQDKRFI
# Assay type: cell-based
PARAMETER: α1β1εδ Activity

[[record]]
compound = "COc1ccc(/C=C2/CN3CCC2CC3)cc1.Cl"
observed = "N"

[[record]]
compound = "C(=C1\\CN2CCC1CC2)/c1ccccc1.Cl"
observed = "N"

[[record]]
compound = "CC[N+](C)(C)C [ETMA, reference compound]"
observed = "N"

[[record]]
compound = "C(=C1/CN2CCC1CC2)/c1ccccc1.Cl"
observed = "≈7%"


Q. Please give the measured α1β1εδ Activity for this compound: CC[N+](C)(C)CC
A. N

Q. Quick check: α1β1εδ Activity of C[N+]12CCC(CC1)CC2.[I-] ?
A. N

Q. Consider the compound COc1ccc(/C=C2\CN3CCC2CC3)cc1.Cl and give its measured α1β1εδ Activity.
A. ≤1%

Q. What measured α1β1εδ Activity goes with C[N+](C)(C)C [TMA, tetramethyl-ammonium, reference compound] ?
A. <2%

Q. Given the entry C1CN2CCC1CC2 , report its measured α1β1εδ Activity.
A. 3%

====

Test system α7 nAChR (Homo sapiens), α7 Imax listed for each of the compounds.
Simply state the number, no unit and no words.

Examples from the recorded data:
[[record]]
compound = "C[N+]12CCC(CC1)CC2.[I-]"
parameter = "α7 Imax"
observed = 1.0

[[record]]
compound = "COc1ccc(/C=C2\\CN3CCC2CC3)cc1.Cl"
parameter = "α7 Imax"
observed = 0.09

[[record]]
compound = "CC[N+](C)(C)C [ETMA, reference compound]"
parameter = "α7 Imax"
observed = 1.0

[[record]]
compound = "CC[N+](C)(C)CC"
parameter = "α7 Imax"
observed = 0.95

[[record]]
compound = "C[N+](C)(C)C [TMA, tetramethyl-ammonium, reference compound]"
parameter = "α7 Imax"
observed = 1.1

[[record]]
compound = "C(=C1\\CN2CCC1CC2)/c1ccccc1.Cl"
parameter = "α7 Imax"
observed = 0.28


Q. Find the recorded α7 Imax belonging to C[N+](C)(C)CCO [Choline, choline, reference compound] and report it.
A. 0.90

Q. Entry under review: COc1ccc(/C=C2/CN3CCC2CC3)cc1.Cl . Reported α7 Imax?
A. 0.41

Q. Item under review: C(=C1/CN2CCC1CC2)/c1ccccc1.Cl . Reported α7 Imax?
A. 0.11

Q. State the recorded α7 Imax for this entry: C1CN2CCC1CC2
A. 1.03

Q. Recorded α7 Imax for CC(=O)OCC[N+](C)(C)C [ACh, acetylcholine, reference compound] , please?
A. 1.0

====

# TARGET_SYSTEM: muscle type (α1β1εδ) nAChR (Homo sapiens, UniProt P02708+Q04844+Q07001)
# Assay type: cell-based
PARAMETER: α1β1εδ Inhibition

[[record]]
compound = "C[N+](C)(C)C [TMA, tetramethyl-ammonium, reference compound]"
observed = "N.S."

[[record]]
compound = "COc1ccc(/C=C2\\CN3CCC2CC3)cc1.Cl [MeOBQNZ]"
observed = "76 ± 6%"

[[record]]
compound = "C1CN2CCC1CC2 [QN, quinuclidine]"
observed = "N.S."

[[record]]
compound = "CC[N+](C)(C)C [ETMA, reference compound]"
observed = "N.S."

[[record]]
compound = "COc1ccc(/C=C2/CN3CCC2CC3)cc1.Cl [MeOBQNE]"
observed = "90 ± 2%"

[[record]]
compound = "C(=C1/CN2CCC1CC2)/c1ccccc1.Cl [BQNZ]"
observed = "N.S."

[[record]]
compound = "C[N+]12CCC(CC1)CC2.[I-] [MQN]"
observed = "N.S."

[[record]]
compound = "C(=C1\\CN2CCC1CC2)/c1ccccc1.Cl [BQNE]"
observed = "70 ± 7%"


Please turn your attention to the following entry.
Q. Endpoint output: α1β1εδ Inhibition of CC[N+](C)(C)CC [dEdMA, diethyldimethylammonium] . Value?
A. N.S.
